tested on: SMN protein in SMA patient fibroblast cells (GM03813); experiment: SMN protein assay (HTRF) in cultured cells; assay type: cell-based; conditions: Homo sapiens, relative to vehicle control, SMA Type 1 patient fibroblasts, 48 hours, read-out: max. fold increase of SMN protein
RESULT TYPE: maximal fold induction
Reply: number alone, nothing else.

Some compounds with known maximal fold induction results, for comparison:
Cc1nc2ccc(-c3cc(=O)n4cc(N5CCN(C)CC5)cc(C)c4n3)nn2n1 : 1.74
Cc1nc2ncc(-c3cc(=O)n4cc(N5CCNC6(CC6)C5)ccc4n3)cn2n1 : 1.52

q: State the recorded maximal fold induction for this entry: Cc1nc2ccc(-c3cc(=O)n4cc(N5CCN6CCC[C@@H]6C5)ccc4n3)nn2n1
a: 1.92

q: State the recorded maximal fold induction for this entry: Cc1nc2ccc(-c3cc(=O)n4cc(N5CC6CN(C)CC6C5)ccc4n3)nn2n1 (centres unmarked)
a: 1.67

q: State the recorded maximal fold induction for this entry: Cc1nc2ccc(-c3cc(=O)n4cc(N5CCCN(C)CC5)ccc4n3)nn2n1
a: 1.77

q: State the recorded maximal fold induction for this entry: Cc1nc2ccc(-c3cc(=O)n4cc(N5CC[C@@H](N(C)C)C5)cc(C)c4n3)nn2n1
a: 1.98

q: State the recorded maximal fold induction for this entry: Cc1nc2ccc(-c3cc(=O)n4cc(N5CC6(CCNCC6)C5)ccc4n3)nn2n1
a: 1.69

q: State the recorded maximal fold induction for this entry: Cc1nc2ncc(-c3cc(=O)n4cc(N5CC6(CCNCC6)C5)ccc4n3)cn2n1
a: 1.99

q: State the recorded maximal fold induction for this entry: Cc1nc2ccc(-c3cc(=O)n4cc(N5CCNC6(CC6)C5)ccc4n3)nn2n1
a: 2.02

q: State the recorded maximal fold induction for this entry: Cc1nc2ccc(-c3cc(=O)n4cc(N5CCN[C@@H](C)C5)cc(C)c4n3)nn2n1
a: 2.04

q: State the recorded maximal fold induction for this entry: Cc1nc2ncc(-c3cc(=O)n4cc(N5CC6CN(C)CC6C5)ccc4n3)cn2n1 (centres unmarked)
a: 1.85

q: State the recorded maximal fold induction for this entry: Cc1nc2ccc(-c3cc(=O)n4cc(N5CCN(C)CC5)ccc4n3)nn2n1
a: 1.74

q: State the recorded maximal fold induction for this entry: Cc1nc2ccc(-c3cc(=O)n4cc(N5CCN[C@H](C)C5)cc(C)c4n3)nn2n1
a: 2.08

----------
system: SMN protein in SMA patient fibroblast cells (GM03813); test: SMN protein assay (HTRF) in cultured cells; type: cell-based; conditions: Homo sapiens, concentration producing 1.5 times SMN protein vs vehicle, SMA Type 1 patient fibroblasts, 48 hours, read-out: EC1.5x SMN protein
RESULT TYPE: EC (1.5-fold)
Kindly report the value followed by its unit.

Some molecules with known EC (1.5-fold) results, for comparison:
Cc1nc2ccc(-c3cc(=O)n4cc(N5CCN(C6COC6)CC5)cc(C)c4n3)nn2n1 [Example 31] : 1.31 µM
Cc1nc2ncc(-c3cc(=O)n4cc(N5C[C@H](C)N[C@@H](C)C5)ccc4n3)cn2n1 [Example 11] : 0.175 µM
Cc1nc2ccc(-c3cc(=O)n4cc(N5CCN[C@@H](C)C5)cc(C)c4n3)nn2n1 [Example 45] : 0.009 µM

Consider the additional molecule presented here.
q: State the recorded EC (1.5-fold) for this entry: Cc1nc2ccc(-c3cc(=O)n4cc(N5CCN[C@H](C)C5)ccc4n3)nn2n1 [Example 17]
a: 0.0932 µM

meta.source: patent US10208067B2
